Readings of Ki for the listed compounds
Biological target: Neuronal acetylcholine receptor subunit alpha-7 (Homo sapiens, UniProt P36544)
Sequence (P36544 whole entry): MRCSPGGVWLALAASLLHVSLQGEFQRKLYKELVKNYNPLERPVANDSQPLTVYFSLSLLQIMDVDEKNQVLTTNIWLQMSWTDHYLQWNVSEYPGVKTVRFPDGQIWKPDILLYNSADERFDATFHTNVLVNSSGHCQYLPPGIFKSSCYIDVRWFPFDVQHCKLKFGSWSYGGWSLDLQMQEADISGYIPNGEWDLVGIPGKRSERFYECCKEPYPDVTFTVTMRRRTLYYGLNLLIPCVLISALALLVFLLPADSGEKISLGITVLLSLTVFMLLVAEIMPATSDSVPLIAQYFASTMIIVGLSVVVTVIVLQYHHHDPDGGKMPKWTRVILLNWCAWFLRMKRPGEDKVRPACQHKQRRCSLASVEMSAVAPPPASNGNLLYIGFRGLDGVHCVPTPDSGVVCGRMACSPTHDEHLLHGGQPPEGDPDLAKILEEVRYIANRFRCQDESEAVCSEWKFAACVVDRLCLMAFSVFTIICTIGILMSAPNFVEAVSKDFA
Experiment: Displacement of [3H]MLA from human alpha7 nAChR transfected in human SH-SY5Y cell membranes after 120 mins by liquid scintillation counting
Expressed in nM, but write only the number.

Data request: Please indicate Ki recorded for FCCCOc1cccc(-c2cn(C3CN4CCC3CC4)nn2)c1 (racemic)
Data returned: 74.6

Data request: Please indicate Ki recorded for Fc1ccc(-c2cn(C3CN4CCC3CC4)nn2)cc1 (racemic)
Data returned: 72.8

Data request: Please indicate Ki recorded for Fc1cccc(-c2cn([C@H]3CN4CCC3CC4)nn2)c1
Data returned: 117

Data request: Please indicate Ki recorded for FCCOc1cccc(-c2cn([C@H]3CN4CCC3CC4)nn2)c1
Data returned: 38.8

Data request: Please indicate Ki recorded for Fc1ccc(-c2cn([C@H]3CN4CCC3CC4)nn2)cc1
Data returned: 73

Data request: Please indicate Ki recorded for FCCCOc1cccc(-c2cn([C@H]3CN4CCC3CC4)nn2)c1
Data returned: 62.3

Data request: Please indicate Ki recorded for Fc1ccc(COc2cccc(-c3cn(C4CN5CCC4CC5)nn3)c2)cc1 (racemic)
Data returned: 127

Data request: Please indicate Ki recorded for FCCOc1cccc(-c2cn([C@@H]3CN4CCC3CC4)nn2)c1
Data returned: 74.9

***
Data request: Please indicate Ki recorded for FCCCOc1cccc(-c2cn([C@@H]3CN4CCC3CC4)nn2)c1
Data returned: 96.9

Data request: Please indicate Ki recorded for Fc1ccc(COc2cccc(-c3cn([C@H]4CN5CCC4CC5)nn3)c2)cc1
Data returned: 33.2

----------
Molecular target: Neuronal acetylcholine receptor; alpha3/beta4 (Homo sapiens, UniProt P30926+P32297)
Sequence (P30926 whole entry): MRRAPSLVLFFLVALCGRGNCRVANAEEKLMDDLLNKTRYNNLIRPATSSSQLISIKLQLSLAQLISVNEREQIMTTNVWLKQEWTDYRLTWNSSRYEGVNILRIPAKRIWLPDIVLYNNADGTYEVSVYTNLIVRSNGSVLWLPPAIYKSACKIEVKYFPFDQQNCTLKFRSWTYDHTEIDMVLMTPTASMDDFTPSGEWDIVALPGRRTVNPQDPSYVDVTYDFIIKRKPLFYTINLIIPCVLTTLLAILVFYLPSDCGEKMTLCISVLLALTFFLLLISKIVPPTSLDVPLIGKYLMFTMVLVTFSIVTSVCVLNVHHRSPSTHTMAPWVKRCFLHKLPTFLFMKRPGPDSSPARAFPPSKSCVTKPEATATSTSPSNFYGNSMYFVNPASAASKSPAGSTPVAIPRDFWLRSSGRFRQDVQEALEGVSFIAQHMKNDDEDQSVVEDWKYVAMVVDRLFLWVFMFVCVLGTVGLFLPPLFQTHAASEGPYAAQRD
Sequence (P32297 whole entry): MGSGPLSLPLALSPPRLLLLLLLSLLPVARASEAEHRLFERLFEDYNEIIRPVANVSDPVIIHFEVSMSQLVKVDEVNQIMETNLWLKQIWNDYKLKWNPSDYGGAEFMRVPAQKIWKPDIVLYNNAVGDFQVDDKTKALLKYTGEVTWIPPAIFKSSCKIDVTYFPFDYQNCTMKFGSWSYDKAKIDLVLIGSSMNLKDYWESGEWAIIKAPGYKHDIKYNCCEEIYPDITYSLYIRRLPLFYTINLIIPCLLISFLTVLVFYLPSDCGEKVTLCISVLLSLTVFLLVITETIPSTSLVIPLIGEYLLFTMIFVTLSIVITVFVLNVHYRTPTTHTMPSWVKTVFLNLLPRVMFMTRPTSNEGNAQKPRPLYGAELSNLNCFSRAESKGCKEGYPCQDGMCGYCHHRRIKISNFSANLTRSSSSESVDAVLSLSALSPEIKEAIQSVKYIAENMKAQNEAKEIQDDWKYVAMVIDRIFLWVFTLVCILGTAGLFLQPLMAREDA
Test: Displacement of [3H]epibatidine from human alpha3beta4 nAChR transfected in HEK293 cell membranes after 120 mins by liquid scintillation counting
measured.attribute: pKi
The quantity pKi is defined as the negative base-10 logarithm of the molar concentration.

Data request: State the measured pKi (Neuronal acetylcholine receptor; alpha3/beta4 (Homo sapiens, UniProt P30926+P32297)) of FCCOc1cccc(-c2cn(C3CN4CCC3CC4)nn2)c1 (racemic)
Data returned: 7.68

***
Data request: State the measured pKi (Neuronal acetylcholine receptor; alpha3/beta4 (Homo sapiens, UniProt P30926+P32297)) of Fc1cccc(-c2cn(C3CN4CCC3CC4)nn2)c1 (racemic)
Data returned: 8.28

Data request: State the measured pKi (Neuronal acetylcholine receptor; alpha3/beta4 (Homo sapiens, UniProt P30926+P32297)) of Fc1ccc(COc2cccc(-c3cn([C@@H]4CN5CCC4CC5)nn3)c2)cc1
Data returned: 8.14

Data request: State the measured pKi (Neuronal acetylcholine receptor; alpha3/beta4 (Homo sapiens, UniProt P30926+P32297)) of Fc1ccc(COc2cccc(-c3cn([C@H]4CN5CCC4CC5)nn3)c2)cc1
Data returned: 5.96

Data request: State the measured pKi (Neuronal acetylcholine receptor; alpha3/beta4 (Homo sapiens, UniProt P30926+P32297)) of FCCOc1cccc(-c2cn([C@H]3CN4CCC3CC4)nn2)c1
Data returned: 6.25

----------
Organism: Homo sapiens
Experiment: Selectivity index, reciprocal of ratio of Ki for human alpha7 nAChR transfected in human SH-SY5Y cells to Ki for human alpha3beta4 nAChR transfected in HEK293 cells
Format: cell-based
measured.attribute: Ratio
Give only the figure.

Example cases with answers are listed next.
Data request: Please indicate Ratio recorded for FCCOc1cccc(-c2cn([C@H]3CN4CCC3CC4)nn2)c1
Data returned: 14

Data request: Please indicate Ratio recorded for Fc1ccc(COc2cccc(-c3cn([C@H]4CN5CCC4CC5)nn3)c2)cc1
Data returned: 33

Data request: Please indicate Ratio recorded for Fc1cccc(-c2cn([C@H]3CN4CCC3CC4)nn2)c1
Data returned: 3.1

***
Data request: Please indicate Ratio recorded for Fc1ccc(-c2cn([C@H]3CN4CCC3CC4)nn2)cc1
Data returned: 14

Data request: Please indicate Ratio recorded for Oc1ccc(-c2cn([C@H]3CN4CCC3CC4)nn2)cc1
Data returned: 12.7

Data request: Please indicate Ratio recorded for c1ccc(COc2cccc(-c3cn([C@H]4CN5CCC4CC5)nn3)c2)cc1
Data returned: 28

Data request: Please indicate Ratio recorded for FCCCOc1cccc(-c2cn([C@H]3CN4CCC3CC4)nn2)c1
Data returned: 26

----------
Biological target: Neuronal acetylcholine receptor subunit alpha-7 (Homo sapiens)
Assay: Displacement of [3H]MLA from human alpha7 nAChR transfected in human SH-SY5Y cell membranes after 120 mins by liquid scintillation counting
Mark yes (1) for Ki under 100 nM, no (0) if at or over.

Data request: I'd appreciate it if you could check whether c1ccc(COc2cccc(-c3cn(C4CN5CCC4CC5)nn3)c2)cc1 (racemic) has Ki smaller than 100 nM.
Data returned: yes (1)

Data request: I'd appreciate it if you could check whether Oc1ccc(-c2cn(C3CN4CCC3CC4)nn2)cc1 (racemic) has Ki smaller than 100 nM.
Data returned: yes (1)

Data request: I'd appreciate it if you could check whether Fc1cccc(-c2cn([C@@H]3CN4CCC3CC4)nn2)c1 has Ki smaller than 100 nM.
Data returned: no (0)

Data request: I'd appreciate it if you could check whether c1ccc(COc2cccc(-c3cn([C@H]4CN5CCC4CC5)nn3)c2)cc1 has Ki smaller than 100 nM.
Data returned: yes (1)

Data request: I'd appreciate it if you could check whether Fc1cccc(-c2cn(C3CN4CCC3CC4)nn2)c1 (racemic) has Ki smaller than 100 nM.
Data returned: no (0)

***
Data request: I'd appreciate it if you could check whether Oc1ccc(-c2cn([C@@H]3CN4CCC3CC4)nn2)cc1 has Ki smaller than 100 nM.
Data returned: yes (1)

Data request: I'd appreciate it if you could check whether Oc1ccc(-c2cn([C@H]3CN4CCC3CC4)nn2)cc1 has Ki smaller than 100 nM.
Data returned: yes (1)

Data request: I'd appreciate it if you could check whether Fc1ccc(-c2cn([C@@H]3CN4CCC3CC4)nn2)cc1 has Ki smaller than 100 nM.
Data returned: no (0)

Data request: I'd appreciate it if you could check whether Fc1ccc(COc2cccc(-c3cn([C@@H]4CN5CCC4CC5)nn3)c2)cc1 has Ki smaller than 100 nM.
Data returned: no (0)

Data request: I'd appreciate it if you could check whether c1ccc(COc2cccc(-c3cn([C@@H]4CN5CCC4CC5)nn3)c2)cc1 has Ki smaller than 100 nM.
Data returned: no (0)

----------
Target: Neuronal acetylcholine receptor; alpha4/beta2 (Homo sapiens, UniProt P17787+P43681)
Sequence (P17787 whole entry): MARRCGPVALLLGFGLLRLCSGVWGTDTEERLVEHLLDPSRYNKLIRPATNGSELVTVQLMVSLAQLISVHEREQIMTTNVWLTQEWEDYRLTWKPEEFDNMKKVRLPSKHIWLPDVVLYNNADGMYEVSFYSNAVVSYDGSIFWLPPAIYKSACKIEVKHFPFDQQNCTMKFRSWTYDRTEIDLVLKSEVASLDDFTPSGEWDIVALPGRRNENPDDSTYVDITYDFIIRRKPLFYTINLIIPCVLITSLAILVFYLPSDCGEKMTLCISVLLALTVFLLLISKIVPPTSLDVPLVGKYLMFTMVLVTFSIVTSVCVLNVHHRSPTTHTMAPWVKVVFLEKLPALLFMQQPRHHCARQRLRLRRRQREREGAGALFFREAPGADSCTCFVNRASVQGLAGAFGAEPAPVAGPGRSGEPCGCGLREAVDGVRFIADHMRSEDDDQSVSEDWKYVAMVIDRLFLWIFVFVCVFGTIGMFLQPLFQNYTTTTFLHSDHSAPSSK
Sequence (P43681 whole entry): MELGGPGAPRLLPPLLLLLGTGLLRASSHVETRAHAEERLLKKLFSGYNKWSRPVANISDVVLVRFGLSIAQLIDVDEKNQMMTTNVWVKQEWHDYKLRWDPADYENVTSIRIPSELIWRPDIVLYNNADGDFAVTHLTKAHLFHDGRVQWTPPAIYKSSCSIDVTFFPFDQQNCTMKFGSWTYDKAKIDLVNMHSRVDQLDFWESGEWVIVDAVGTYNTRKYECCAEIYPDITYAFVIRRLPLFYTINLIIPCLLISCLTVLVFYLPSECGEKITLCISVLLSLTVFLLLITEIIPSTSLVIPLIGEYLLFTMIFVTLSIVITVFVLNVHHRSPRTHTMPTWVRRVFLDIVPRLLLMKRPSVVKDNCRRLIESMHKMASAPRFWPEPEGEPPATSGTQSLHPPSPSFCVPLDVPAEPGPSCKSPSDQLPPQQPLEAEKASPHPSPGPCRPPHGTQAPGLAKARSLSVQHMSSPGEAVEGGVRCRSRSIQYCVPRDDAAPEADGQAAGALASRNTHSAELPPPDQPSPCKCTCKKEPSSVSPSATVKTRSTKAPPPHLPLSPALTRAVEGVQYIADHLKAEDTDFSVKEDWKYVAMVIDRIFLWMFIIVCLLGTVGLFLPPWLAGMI
Assay: Binding affinity to alpha4beta2 nAChR (unknown origin)
Format: protein-complex assay
measured.attribute: Ki
Your answer should be a number followed by the unit of measure.

Data request: Please indicate Ki recorded for CN1C2CCCC1CC(Nc1ccccc1Br)C2 (stereo unspecified)
Data returned: 476 nM

----------
Target: Neuronal acetylcholine receptor subunit alpha-7 (Homo sapiens, UniProt P36544)
Assay: Binding affinity to alpha7 nAChR (unknown origin)
measured.attribute: Ki
Your answer should be a number followed by the unit of measure.

Data request: State the measured Ki (Neuronal acetylcholine receptor subunit alpha-7 (Homo sapiens, UniProt P36544)) of CN1C2CCCC1CC(Nc1ccccc1Br)C2 (stereo unspecified)
Data returned: 221 nM

----------
Species: Homo sapiens
Assay: Selectivity index, reciprocal of ratio of Ki for alpha7 nAChR transfected in human SH-SY5Y cells to KI for human alpha4beta2 nAChR transfected in HEK293 cells
Type: cell-based
If the reported Ratio equals or exceeds 8, assign label 1. If not, assign label 0.

Data request: Check if Ratio >= 8 (inclusive). Item: Oc1ccc(-c2cn(C3CN4CCC3CC4)nn2)cc1 (racemic)
Data returned: label 1

Data request: Check if Ratio >= 8 (inclusive). Item: c1ccc(COc2cccc(-c3cn(C4CN5CCC4CC5)nn3)c2)cc1 (racemic)
Data returned: label 0

Data request: Check if Ratio >= 8 (inclusive). Item: c1ccc(COc2cccc(-c3cn([C@@H]4CN5CCC4CC5)nn3)c2)cc1
Data returned: label 0

Data request: Check if Ratio >= 8 (inclusive). Item: c1ccc(COc2cccc(-c3cn([C@H]4CN5CCC4CC5)nn3)c2)cc1
Data returned: label 1

***
Data request: Check if Ratio >= 8 (inclusive). Item: FCCOc1cccc(-c2cn([C@H]3CN4CCC3CC4)nn2)c1
Data returned: label 1

Data request: Check if Ratio >= 8 (inclusive). Item: Fc1ccc(-c2cn(C3CN4CCC3CC4)nn2)cc1 (racemic)
Data returned: label 0

Data request: Check if Ratio >= 8 (inclusive). Item: Oc1ccc(-c2cn([C@H]3CN4CCC3CC4)nn2)cc1
Data returned: label 1

Data request: Check if Ratio >= 8 (inclusive). Item: Fc1ccc(-c2cn([C@H]3CN4CCC3CC4)nn2)cc1
Data returned: label 1

Values from ChEMBL document CHEMBL4428135
